The reported numbers originate from the AptaBench aptamer set (doi:10.1093/nar/gkaf219).

- Test system: DNA aptamer or structured DNA TTCAAATCTGGTGCCCTTTCGCAGTCGGTTGGTAATGAGATCACTTTAGAGTCTAGATTTGAA
- cond: 10 mM Tris-HCl, pH 7.4
measurement.kind: Kd (µM)

INSERT INTO measurements (compound_smiles, measurement_kind, observed_measurement) VALUES
  ('CN[C@@H](C)Cc1ccccc1', 'Kd', 1.29);

====

- Test system: DNA aptamer or structured DNA TTCAAATCTTGGTACGTTCTGCCTTTTCTTATTTTGCTTTGGGTTACCTAGTCTAGATTTGAA
- cond: 10 mM Tris-HCl, pH 7.4
measurement.kind: Kd (nM)

INSERT INTO results (compound_smiles, measurement_kind, unit_annotation, observed_measurement) VALUES
  ('CN[C@@H](C)Cc1ccccc1', 'Kd', 'nM', 2530);

====

- System: DNA aptamer or structured DNA CTTACGACGTGTGCTGTTGGTTCTAGGGTAGGATGGCGTCGTAAG
- cond: 10 mM Tris-HCl, pH 7.4
measurement.kind: Kd

INSERT INTO measurements (compound, measurement_kind, observed_measurement) VALUES
  ('COC(=O)[C@@H]1C2CCC(C[C@@H]1OC(=O)c1ccccc1)N2C (stereo partly specified)', 'Kd', '93 nM');

====

- Tested on: DNA aptamer or structured DNA GGGACGACTACAGGTCGTGCGTTGCTCGAGTTGGTGAGTGTGTCGTCCC
- cond: 10 mM Tris-HCl, pH 7.4
measurement.kind: binding call; further: call rule not given here

INSERT INTO results (compound, observed_measurement) VALUES
  ('CNC(C)Cc1ccc(O)cc1 (stereo unspecified)', 'binds'),
  ('O=C(O)Cc1ccc(O)c(O)c1', 'no binding'),
  ('NCCc1ccc(O)cc1', 'no binding'),
  ('N[C@@H](Cc1ccccc1)C(=O)O', 'no binding'),
  ('CCN(CC)CC(=O)Nc1c(C)cccc1C', 'no binding'),
  ('Cc1nnc2n1-c1ccc(Cl)cc1C(c1ccccc1)=NC2', 'no binding'),
  ('C=C[C@H]1CN2CC[C@@H]1C[C@H]2[C@H](O)c1ccnc2ccc(OC)cc12', 'no binding'),
  ('CNC(C)Cc1ccc2c(c1)OCO2 (stereo unspecified)', 'binds'),
  ('COc1cc(CC(=O)O)ccc1O', 'binds'),
  ('NCCc1ccc(O)c(O)c1', 'binds'),
  ('CN[C@@H](C)[C@@H](O)c1ccccc1', 'no binding'),
  ('CC(N)Cc1ccccc1 (stereo unspecified)', 'binds'),
  ('CC(NC(C)(C)C)C(=O)c1cccc(Cl)c1 (stereo unspecified)', 'no binding'),
  ('CCN(CC)CCOC(=O)c1ccc(N)cc1', 'no binding'),
  ('NCC(O)c1ccc(O)c(O)c1 (stereo unspecified)', 'no binding'),
  ('COC(=O)C(c1ccccc1)C1CCCCN1 (stereo unspecified)', 'binds');

====

- Test system: DNA aptamer or structured DNA TTCAAATCTTATGTACGTTCTATCGCATGGATGGGATTTTGGGTTACCTAGTCTAGATTTGAA
- cond: 10 mM Tris-HCl, pH 7.4
measurement.kind: Kd (nM)

INSERT INTO results (compound_smiles, measurement_kind, unit_annotation, observed_measurement) VALUES
  ('CN[C@@H](C)Cc1ccccc1', 'Kd', 'nM', 1540);

====

- Test system: DNA aptamer or structured DNA GGGACGACGCGTAGGTTTCCTAGCTGTGCGTCGTTCAAGTCGTCCC
- cond: 10 mM Tris-HCl, pH 7.4
measurement.kind: Kd (µM)

INSERT INTO measurements (compound_smiles, target_entity, measurement_kind, unit_annotation, observed_measurement) VALUES
  ('CC(=O)Oc1ccc2c3c1O[C@H]1[C@@H](OC(C)=O)C=C[C@H]4[C@@H](C2)N(C)CC[C@@]341', 'DNA aptamer or structured DNA GGGACGACGCGTAGGTTTCCTAGCTGTGCGTCGTTCAAGTCGTCCC', 'Kd', 'µM', 4.57);

====

- System: DNA aptamer or structured DNA CTTACGACAAGGGATGTGAGTTAGTGTGTCGGATCTATGTCGTAAG
- cond: 10 mM Tris-HCl, pH 7.4
measurement.kind: binding call; further: call rule not given here

INSERT INTO measurements (molecule, observed_measurement) VALUES
  ('COc1ccc2c3c1O[C@H]1C(=O)CC[C@@]4(O)[C@@H](C2)N(C)CC[C@]314', 'no binding'),
  ('CC(=O)Nc1ccc(O)cc1', 'no binding'),
  ('CNC(C)C(=O)c1ccc(C)cc1 (centres undefined)', 'no binding'),
  ('CCN(CC)CCOC(=O)c1ccc(N)cc1', 'binds'),
  ('CCCC(C(=O)c1ccc2c(c1)OCO2)N1CCCC1 (centres undefined)', 'no binding'),
  ('NCCc1c[nH]c2ccc(O)cc12', 'no binding'),
  ('C=C[C@H]1CN2CC[C@@H]1C[C@H]2[C@H](O)c1ccnc2ccc(OC)cc12', 'no binding'),
  ('c1ccc([C@H]2CN3CCSC3=N2)cc1', 'no binding'),
  ('NCCc1ccc(O)c(O)c1', 'binds'),
  ('CN[C@@H](C)Cc1ccccc1', 'no binding'),
  ('CN(C)CCOC(c1ccccc1)c1ccccc1', 'no binding'),
  ('CC(N)Cc1ccccc1 (centres undefined)', 'no binding'),
  ('CCN(CC)CC(=O)Nc1c(C)cccc1C', 'no binding'),
  ('CN1C2CCC1[C@@H](C(=O)O)[C@@H](OC(=O)c1ccccc1)C2 (some centres undefined)', 'binds');

====

- Tested on: DNA aptamer or structured DNA CTTACGACGGGGGTGTGGCTAGGGGTGGCGCGGGATCCGTCGTAAG
- cond: 10 mM Tris-HCl, pH 7.4
measurement.kind: Kd (nM)

INSERT INTO results (molecule, target_entity, measurement_kind, unit_annotation, observed_measurement) VALUES
  ('COC(=O)[C@@H]1C2CCC(C[C@@H]1OC(=O)c1ccccc1)N2C (stereo partly specified)', 'DNA aptamer or structured DNA CTTACGACGGGGGTGTGGCTAGGGGTGGCGCGGGATCCGTCGTAAG', 'Kd', 'nM', 185);

====

- Tested on: DNA aptamer or structured DNA GGGACGACTAGCCCGGCGTTGTTCGAGTGCAGCGAGTAGTCGTCCC
- cond: 10 mM Tris-HCl, pH 7.4
measurement.kind: Kd

INSERT INTO assay_data (compound_smiles, observed_measurement) VALUES
  ('CC(=O)Oc1ccc2c3c1O[C@H]1[C@@H](OC(C)=O)C=C[C@H]4[C@@H](C2)N(C)CC[C@@]341', '2390 nM');

====

- Tested on: DNA aptamer or structured DNA CTTACGACGGGGGTGTGGCTAGGGGTGGCGCGGGATCCGTCGTAAG
- cond: 10 mM Tris-HCl, pH 7.4
measurement.kind: binding call; further: call rule not given here

INSERT INTO assay_data (compound, target_entity, observed_measurement) VALUES
  ('CC(=O)Nc1ccc(O)cc1', 'DNA aptamer or structured DNA CTTACGACGGGGGTGTGGCTAGGGGTGGCGCGGGATCCGTCGTAAG', 'binds'),
  ('CN[C@@H](C)[C@@H](O)c1ccccc1', 'DNA aptamer or structured DNA CTTACGACGGGGGTGTGGCTAGGGGTGGCGCGGGATCCGTCGTAAG', 'no binding'),
  ('CC(=O)Oc1ccc2c3c1O[C@H]1[C@@H](OC(C)=O)C=C[C@H]4[C@@H](C2)N(C)CC[C@@]341', 'DNA aptamer or structured DNA CTTACGACGGGGGTGTGGCTAGGGGTGGCGCGGGATCCGTCGTAAG', 'binds'),
  ('NCCc1c[nH]c2ccc(O)cc12', 'DNA aptamer or structured DNA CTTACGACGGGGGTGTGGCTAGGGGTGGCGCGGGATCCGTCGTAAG', 'binds'),
  ('CCCCCc1cc(O)c2c(c1)OC(C)(C)[C@@H]1CCC(C)=C[C@@H]21', 'DNA aptamer or structured DNA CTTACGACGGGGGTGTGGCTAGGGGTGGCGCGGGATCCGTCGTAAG', 'no binding'),
  ('C=C[C@H]1CN2CC[C@@H]1C[C@H]2[C@H](O)c1ccnc2ccc(OC)cc12', 'DNA aptamer or structured DNA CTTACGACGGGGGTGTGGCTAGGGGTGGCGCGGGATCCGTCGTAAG', 'binds'),
  ('CCOC(=O)c1ccc(N)cc1', 'DNA aptamer or structured DNA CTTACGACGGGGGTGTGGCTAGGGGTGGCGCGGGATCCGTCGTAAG', 'no binding'),
  ('c1ccc([C@H]2CN3CCSC3=N2)cc1', 'DNA aptamer or structured DNA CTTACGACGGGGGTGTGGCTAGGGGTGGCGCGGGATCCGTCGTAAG', 'binds'),
  ('CCCCCn1cc(C(=O)C2C(C)(C)C2(C)C)c2ccccc21', 'DNA aptamer or structured DNA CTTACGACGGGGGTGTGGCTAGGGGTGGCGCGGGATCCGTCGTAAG', 'no binding'),
  ('CN1CC[C@]23c4c5ccc(O)c4O[C@H]2[C@@H](O)C=C[C@H]3[C@H]1C5', 'DNA aptamer or structured DNA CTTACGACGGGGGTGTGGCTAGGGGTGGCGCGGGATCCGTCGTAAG', 'no binding'),
  ('CN1[C@@H]2CC(OC(=O)[C@H](CO)c3ccccc3)C[C@H]1[C@@H]1O[C@@H]12 (stereo partly specified)', 'DNA aptamer or structured DNA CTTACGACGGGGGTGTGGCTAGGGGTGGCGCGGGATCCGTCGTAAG', 'no binding');
